Measured log10(Kd) accompanies every entry in the list below.
ASSAYED_SYSTEM: T1, mature recombinant cynomolgus GDF-15 with an N-terminal Flag and His tag, biotinylated (cynomolgus, UniProt G7PWZ3 197-308, chemically biotinylated with EZ link Sulfo-NHS-LC-Biotin, sites not stated)
T1 construct: not shown: N-terminal Flag and His tags
T1 sequence: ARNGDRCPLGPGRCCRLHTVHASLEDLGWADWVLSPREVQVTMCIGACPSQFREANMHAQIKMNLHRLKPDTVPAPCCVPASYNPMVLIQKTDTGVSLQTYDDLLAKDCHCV
PROTOCOL: SPR Biacore 8K, 25 C, biotinylated GDF-15 on streptavidin C1 chip, Fab as analyte
Short version: log10 scale, Kd, nM.

Enquiry: Note down log10(Kd) recorded for AB1170242 Fab (Fab, V domains shown, Fab of the humanized antibody, expressed as in Spooner et al. 2015) VH: QVQLQESGPGLLKPSQTLSLTCTVSGFSLSTYGMGVGWIRQPAGKGLEWLANIWWNDDKYYNSALKSRLTISKDTSKNQVSLKLSSVTAADTAVYYCAQEVYGWFAYWGQGTLVTVSS VL: DIQMTQSPSTLSASVGDRVTITCKASQNVGTNVAWYQQKPGQPPKALIYSASYRYSGVPDRFSGSGSGTDFTLTISSLQAEDVAVYYCQQYNSYPLTFGQGTKLEIK
Return: 0.46

Enquiry: Note down log10(Kd) recorded for AB1170244 Fab (Fab, V domains shown, Fab of the humanized antibody, expressed as in Spooner et al. 2015) VH: EVQLVESGGGLVKPGGSLRLSCAASGFTFSSYAMSWVRQAPGKGLEWVAYISSGGDNIYYADTVKGRFTISRDNSKNTLYLQMNSLKTEDTAVYYCTRALVENAYFDYWGQGTTVTVSS VL: DSVLTQSPDSLAVSLGERATINCRASKSVSTSTYSYMHWYQQKPGQPPKLLIKYASYLESGVPDRFSGSGSGTDFTLKISRVEAEDVGVYYCQHSREFPWTFGGGTKVEIK
Return: 0.74

Enquiry: Note down log10(Kd) recorded for AB1170243 Fab (Fab, V domains shown, Fab of the humanized antibody, expressed as in Spooner et al. 2015) VH: QVQLVQSGSELKKPGASVKVSCKASGYTFTDYNMDWIRQSPGKGLEWIGDINPNNGGTFYNQKFKDRATLTVDKSTSTAYMELRSLRSDDTAVYYCAREEKLYFGLMDYWGQGTTVTVSS VL: DIQMTQSPSSLSASVGDRVTITCRASENIYSYLAWYQQKPGKAPKLLVYNAKTLAEGVPSRFSGSGSGIDFTLTISSLQPEDFATYYCQHQYGSPPTFGQGTKLEIK
Return: -0.56

Enquiry: Note down log10(Kd) recorded for AB1170241 Fab (Fab, V domains shown, Fab of the humanized antibody, expressed as in Spooner et al. 2015) VH: QVQLVQSGSELKKPGASVKVSCKASGYTFTDYNMDWIRQSPGKGLEWIGDINPNQGGTFYNQKFKDRATLTVDKSTSTAYMELRSLRSDDTAVYYCAREEKLYFGLMDYWGQGTTVTVSS VL: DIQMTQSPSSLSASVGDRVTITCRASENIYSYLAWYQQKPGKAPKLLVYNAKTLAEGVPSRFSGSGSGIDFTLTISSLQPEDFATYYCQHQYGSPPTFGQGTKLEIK
Return: -0.32

Enquiry: Note down log10(Kd) recorded for AB1520085 Fab (Fab, V domains shown, Fab of the anti-mouse GDF-15 mouse IgG1, expressed as in Spooner et al. 2015) VH: QVQLQQPGAELVMPGASVKMSCKASGYTFTDYWMHWVKQRPGQGLEWIGVIDTSESYTSYNQKFKGKATLTVDESSSTAYMQLSSLTSEDSAVYFCARGGTTVVLDYWGQGTTLTVSS VL: DIVMTQSQKFMSTSVGDRVSVTCKASQNVGTAVAWYQKKPGQSPKALIYSASTRYTGVPDRFTGSGSGTDFTLTISNVQSEDLAEYFCQQYSSSPWTFGGGTKLELK
Return: 0.45

Enquiry: Note down log10(Kd) recorded for AB1170247 Fab (Fab, V domains shown, Fab of the humanized antibody, expressed as in Spooner et al. 2015) VH: QVQLVQSGSELKKPGASVKVSCKASGYTFTSYDINWVRQAPGQGLEWIGWIYPRDGISKYNEKFKGRATLTVDTSASTAYMELSSLRSEDTAVYYCAGTYDPAYFDYWGQGTTVTVSS VL: EIVLTQSPATLSVSPGERATLSCRASQSISYYLHWYQQKPGQAPRLLIKYASQSISGVPDRFSGSGSGTDFTLKISRVEAEDFGVYYCQQSNSWPYTFGGGTKVEIK
Return: 1.18

Enquiry: Note down log10(Kd) recorded for AB1170249 Fab (Fab, V domains shown, Fab of the humanized antibody, expressed as in Spooner et al. 2015) VH: QVQLQESGPGLLKPSQTLSLTCTVSGFSLSTYGMGVGWIRQPLGKGLEWLANIWWNDDKYYNSALKSRLTISKDTSKNQVSLKLSSVTAADTAVYYCAQMAYSWFAYWGQGTLVTVSS VL: DIQMTQSPSFLSASVGDRVTITCKASQNMDTNVAWYQQKPGQPPKALIYSASYRYSGVPDRFSGSGSGTDFTLTISSLQAEDVAVYYCQQYNSYPFTFGQGTKLEIK
Return: 0.49

Enquiry: Note down log10(Kd) recorded for AB1170245 Fab (Fab, V domains shown, Fab of the humanized antibody, expressed as in Spooner et al. 2015) VH: EVQLVESGGGLVKPGGSLRLSCAASGFTFSSYAMSWVRQAPGKGLEWVAYISSGGDYIYYADTVKGRFTISRDNSKNTLYLQMNSLKTEDTAVYYCTRALVDNAYFDYWGQGTTVTVSS VL: DIVLTQSPDSLAVSLGERATINCRASKSVSTSSYSYMHWYQQKPGQPPKLLIKYASYLEFGVPSRFSGSGSGTDFTLTISSLQPEDVATYYCQHSREFPWTFGGGTKVEIK
Return: 1.32
